Reference source for all entries: patent US20220064310A1

pKd for assorted binders
Target: T1, CSF-1R-ECD-human Fc (in house) (human, UniProt P07333 20-512)
T1 construct: In-house fusion; also called CSF-1R-ECD-hFc; CSF1R-ECD-hFc; not shown: human Fc
T1 sequence (P07333 20-512): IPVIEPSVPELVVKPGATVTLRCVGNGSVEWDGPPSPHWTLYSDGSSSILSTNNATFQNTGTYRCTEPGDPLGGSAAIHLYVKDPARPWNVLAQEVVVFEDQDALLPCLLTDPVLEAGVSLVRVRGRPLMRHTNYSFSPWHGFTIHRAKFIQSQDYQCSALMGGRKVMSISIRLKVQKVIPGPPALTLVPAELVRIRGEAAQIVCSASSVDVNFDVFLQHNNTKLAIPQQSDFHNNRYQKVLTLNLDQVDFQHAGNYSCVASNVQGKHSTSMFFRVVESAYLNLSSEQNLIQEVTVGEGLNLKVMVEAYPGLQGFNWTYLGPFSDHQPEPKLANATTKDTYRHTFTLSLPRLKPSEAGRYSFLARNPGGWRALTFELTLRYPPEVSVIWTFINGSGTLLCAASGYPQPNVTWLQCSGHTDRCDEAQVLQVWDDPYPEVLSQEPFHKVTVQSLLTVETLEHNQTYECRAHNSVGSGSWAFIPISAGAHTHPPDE
Experiment: ELISA, CSF1R-ECD-hFc coated at 1 ug/ml, anti-kappa HRP, one site-specific binding fit
Experimental: To know the binding affinity differences among individual antibodies, ELISA method was used. ELISA plate was coated with 1 μg/ml of CSF1R-ECD-hFc, then add assay antibodies diluted from 50 nM to 1×10⁻⁵ nM (5-10× fold dilution). Assay was measured by adding anti-kappa HRP secondary antibody (1:5000 dilution). Binding curve and KD were determined with GraphPad Prism software using one site-specific binding for nonlinear fit methods. […]
pKd field: float, defined as -log10 of concentration (mol/L).

Sample answers from the record:
[[record]]
binder = "humanized AB21 B1-Hu (AB21 VHB1 with Hu AB21 VL) (antibody, V domains shown, Human IgG from vector pTCAE8-AB21 in FreeStyle 293 cells, kappa light chain; also called heavy chain B1 combined with light chain Hu) VH: EVQLVQSGAEVKKPGATVKISCKVSGYSFTGYNMNWVQQAPGKGLEWMGNIDPYYGGTTYNQKFKGKATLTVDKSTSTAYMELSSLRSEDTAVYYCARRGDYSGSSYWYFDVWGQGTLVTVSS VL: DIQMTQSPSSLSASVGDRVTITCKASDHINNWLAWYQQKPGKAPKLLLYGATSLETGVPSRFSGSGSGTDYTLTISSLQPEDFATYYCQQYWSTPFTFGQGTKVEIK"
result_type = "pKd"
quantitative_readout = 10.02

[[record]]
binder = "humanized AB21 B1-B1 (AB21 VHB1 with AB21 VLB1) (antibody, V domains shown, Human IgG from vector pTCAE8-AB21 in FreeStyle 293 cells, kappa light chain; also called heavy chain B1 combined with light chain B1) VH: EVQLVQSGAEVKKPGATVKISCKVSGYSFTGYNMNWVQQAPGKGLEWMGNIDPYYGGTTYNQKFKGKATLTVDKSTSTAYMELSSLRSEDTAVYYCARRGDYSGSSYWYFDVWGQGTLVTVSS VL: DIQMTQSPSSLSASLGDRVTITCKASDHINNWLAWYQQKPGKAPKLLLSGATSLETGVPSRFSGSGSGTDYTLTISSLQPEDFATYYCQQYWSTPFTFGQGTKVEIK"
result_type = "pKd"
quantitative_readout = 10.25

[[record]]
binder = "humanized AB21 Hu-Hu (Hu AB21 VH with Hu AB21 VL), the initial humanized antibody (antibody, V domains shown, Human IgG from vector pTCAE8-AB21 in FreeStyle 293 cells, kappa light chain (anti-kappa HRP detection); also called heavy chain Hu combined light chain Hu) VH: EVQLVQSGAEVKKPGATVKISCKVSGYSFTGYNMNWVQQAPGKGLEWMGNIDPYYGGTTYNQKFKGRVTITADTSTDTAYMELSSLRSEDTAVYYCATRGDYSGSSYWYFDVWGQGTLVTVSS VL: DIQMTQSPSSLSASVGDRVTITCKASDHINNWLAWYQQKPGKAPKLLLYGATSLETGVPSRFSGSGSGTDYTLTISSLQPEDFATYYCQQYWSTPFTFGQGTKVEIK"
result_type = "pKd"
quantitative_readout = 7.08


// next entry
Ask: Tell me its pKd given AB21 M-M (mouse heavy chain variable region with mouse light chain variable region, recombinant) (antibody, V domains shown) VH: EVQLQQSGPELEKPGASVKISCKASGYSFTGYNMNWVKQSNGKSLEWIGNIDPYYGGTTYNQKFKGKATLTVDKSSSTAYMQLKSLTSEDSAVYYCARRGDYSGSSYWYFDVWGAGTTVTVSS VL: DIQMTQSSSYLSVSLGGRVTITCKASDHINNWLAWYQQKPGNAPRLLISGATSLETGVPSRFSGSGSGKDYTLSITSLQTEDVVTYYCQQYWSTPFTFGSGTKLEIK as the entry.
Reply: 10.03
